These data points were gathered from patent US20080261994A1.

- system: MMP-1 (Homo sapiens)
- Sequence (P03956 100-469, species assumed): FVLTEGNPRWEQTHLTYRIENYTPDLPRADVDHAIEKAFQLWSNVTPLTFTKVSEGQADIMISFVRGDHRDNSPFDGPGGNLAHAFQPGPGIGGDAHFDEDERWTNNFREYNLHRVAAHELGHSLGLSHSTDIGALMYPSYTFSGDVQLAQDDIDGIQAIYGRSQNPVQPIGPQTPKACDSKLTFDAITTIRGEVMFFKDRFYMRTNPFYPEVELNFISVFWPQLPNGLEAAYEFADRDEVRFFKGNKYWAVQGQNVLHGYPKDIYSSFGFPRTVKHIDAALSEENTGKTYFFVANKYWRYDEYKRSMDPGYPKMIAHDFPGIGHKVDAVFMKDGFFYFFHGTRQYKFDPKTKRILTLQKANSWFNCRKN
- protocol.text: MMP-1 inhibitory action (Type I collagen Activity Measurement kit, FITC-labeled collagen type I)
- Format: biochemical
- test.settings: MMP-1 inhibitory action, FITC-labeled collagen type I, 37° C. for 3 hr; read-out: IC50 MMP1 (Experimental Example 2)
pIC50: −log10 of the molar value.
Catalogue of pIC50 values

Some solved entries appear below for comparison.
compound	pIC50
O=C(O)c1cccc([C@H]2C[C@@]2(NS(=O)(=O)c2ccc(-c3ccc(Cl)cc3)s2)C(=O)O)c1 [Example 2-175]	≤ 6.00
O=C(O)[C@]1(NS(=O)(=O)c2ccc(-c3ccc(Cl)cc3)s2)C[C@@H]1c1ccccc1 [Example 1-85]	≤ 6.00
O=C(O)[C@]1(NS(=O)(=O)c2ccc3c(c2)Cc2cc(F)ccc2-3)C[C@@H]1c1ccccc1 [Example 2-141]	≤ 6.00
COc1ccccc1C1CC1(NS(=O)(=O)c1ccc(-c2ccc(Cl)cc2)cc1)C(=O)O (stereo not shown) [Example 1-13]	≤ 6.00
CC1CCN(c2ccc(S(=O)(=O)N[C@@]3(C(=O)O)C[C@@H]3c3ccccc3)s2)CC1 [Example 2-256]	≤ 5.00

### Prompt Return pIC50 (reported value) for this compound: O=C(O)C1(NS(=O)(=O)c2ccc(-c3ccc(Cl)cc3)s2)CC1c1cccc(CCO)c1 (stereo not shown) [Example 2-109]
### Response ≤ 5.00

### Prompt Identify pIC50 associated with the compound C[C@]1(c2ccccc2)C[C@@]1(NS(=O)(=O)c1ccc2c(c1)Cc1cc(Br)ccc1-2)C(=O)O [Example 2-100]
### Response > 6.00

### Prompt Please report the measured pIC50 for O=C(O)[C@]1(NS(=O)(=O)c2ccc(-c3ccc(Cl)cc3)s2)C[C@@H]1c1cccc(CO)c1 [Example 2-182]
### Response ≤ 5.00

### Prompt For O=C(O)C1(NS(=O)(=O)c2ccc(-c3ccc(Cl)cc3)s2)CC1C1CCCC1 (stereo not shown) [Example 2-61] , write its pIC50.
### Response ≤ 5.00

### Prompt Fill in pIC50 for record O=C(O)C1(NS(=O)(=O)c2ccc(-c3ccc(Cl)cn3)s2)CC1c1cccc(Cn2cccn2)c1 (stereo not shown) [Example 2-56]
### Response ≤ 5.00
